Source of measurements: patent US20250026733A1

half-life at 1 μM by entry:
assay notes: Half-life determination in human liver microsomes
Assay type: in vitro ADME
measurement conditions: human, 1 μM, NADPH, Rep 5, read-out: Half-life, t½, Rep 5
Number in min, nothing else.

Worked set:
[2H]C([2H])([2H])C(Nc1cc(-c2c[nH]c(C(=O)N[C@H](CO)c3cccc(Cl)c3)c2)c(Cl)cn1)C([2H])([2H])[2H] [Formula 19] : 47.8
[2H]C([2H])([2H])C([2H])(Nc1cc(-c2c[nH]c(C(=O)N[C@H](CO)c3cccc(Cl)c3)c2)c(Cl)cn1)C([2H])([2H])[2H] [Formula 18] : 57.5
[2H]C(C)(C)Nc1cc(-c2c[nH]c(C(=O)N[C@H](CO)c3cccc(Cl)c3)c2)c(Cl)cn1 [Formula 21] : 59.5

Read the next record carefully.
Prompt line: Give the measured half-life at 1 μM of CC(C)Nc1cc(-c2c[nH]c(C(=O)N[C@H](CO)c3cccc(Cl)c3)c2)c(Cl)cn1 [Ulixertinib, reference compound] .
Response line: 48.5

###

Fold Change in mRNA Expression of CYP3A4 by entry:
System: CYP3A4 mRNA expression
assay notes: In-vitro CYP induction study, CYP3A4 mRNA in cultured human hepatocytes
measurement conditions: 20 μM, approximately 24 h
Quote the value and follow it with the unit of measurement.

Worked set:
CC(C)Nc1cc(-c2c[nH]c(C(=O)N[C@H](CO)c3cccc(Cl)c3)c2)c(Cl)cn1 [Ulixertinib, reference compound] : 8.26 fold
Cl.[2H]C(C)(C)Nc1cc(-c2c[nH]c(C(=O)N[C@H](CO)c3cccc(Cl)c3)c2)c(Cl)cn1 [Formula 21A] : 6.86 fold
[2H]C([2H])([2H])C(Nc1cc(-c2c[nH]c(C(=O)N[C@H](CO)c3cccc(Cl)c3)c2)c(Cl)cn1)C([2H])([2H])[2H] : 11.7 fold

Prompt line: Give the measured Fold Change in mRNA Expression of CYP3A4 of `[2H]C([2H])([2H])C([2H])(Nc1cc(-c2c[nH]c(C(=O)N[C@H](CO)c3cccc(Cl)c3)c2)c(Cl)cn1)C([2H])([2H])[2H]` .
Response line: 7.06 fold

###

tested system: CYP2B6 (Homo sapiens)
Construct: from tissue; host or cells: human liver microsomes, mixed-gender pool of 200
Sequence (P20813 whole entry): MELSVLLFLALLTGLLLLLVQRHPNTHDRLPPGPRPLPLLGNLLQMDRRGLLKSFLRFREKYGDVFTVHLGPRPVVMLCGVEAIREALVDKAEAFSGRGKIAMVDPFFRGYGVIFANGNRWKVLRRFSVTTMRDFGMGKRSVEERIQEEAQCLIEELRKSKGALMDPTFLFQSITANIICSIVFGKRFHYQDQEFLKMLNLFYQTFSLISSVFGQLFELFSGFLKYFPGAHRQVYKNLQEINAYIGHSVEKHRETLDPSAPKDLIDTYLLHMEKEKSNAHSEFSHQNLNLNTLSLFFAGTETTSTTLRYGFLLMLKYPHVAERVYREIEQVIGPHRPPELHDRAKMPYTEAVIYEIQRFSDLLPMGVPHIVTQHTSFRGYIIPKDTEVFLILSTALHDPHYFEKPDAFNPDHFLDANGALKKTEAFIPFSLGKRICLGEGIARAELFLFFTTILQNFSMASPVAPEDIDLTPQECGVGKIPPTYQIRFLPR
assay notes: In-vitro CYP inhibition study, CYP2B6
Assay type: in vitro ADME
measurement conditions: human liver microsomes, substrate Bupropion (90 μM), preincubation 0 min
IC50 by entry:
Number in µM, nothing else.

CC(C)Nc1cc(-c2c[nH]c(C(=O)N[C@H](CO)c3cccc(Cl)c3)c2)c(Cl)cn1 [Ulixertinib, reference compound] : 11
[2H]C([2H])([2H])C(Nc1cc(-c2c[nH]c(C(=O)N[C@H](CO)c3cccc(Cl)c3)c2)c(Cl)cn1)C([2H])([2H])[2H] [Formula 19] : 14
Cl.[2H]C(C)(C)Nc1cc(-c2c[nH]c(C(=O)N[C@H](CO)c3cccc(Cl)c3)c2)c(Cl)cn1 [Formula 21A] : 17

Prompt line: Lab request: please report IC50 under test system CYP2B6 (Homo sapiens) for [2H]C([2H])([2H])C([2H])(Nc1cc(-c2c[nH]c(C(=O)N[C@H](CO)c3cccc(Cl)c3)c2)c(Cl)cn1)C([2H])([2H])[2H] [Formula 18]
Response line: 12
